system: Leishmania donovani; assay: Leishmania intramacrophage assay; type: functional, organism-based; design: scale not given: in the data most compounds retested in dose-response had high values; conditions: 30.3 µM; […]
Screen size: about 69,000 compounds; about 1,000 (1.4%) showed an effect of 50% or more. Shown is part of a subset that was picked to be rich in strong results.
Property: Percent Effect; scope: individual compounds
Quick note: give the figure in %, leave out the unit.

Answered cases to consult:
compound | observed.result
COc1ccc(C(C)C)cc1C1CC(=O)NCc2nc(N(C)C)sc21 (configuration not stated) | 60.09
CCN(CC)c1ccc2ccc(C(=O)O)cn12 | 18.9
Cc1nc(C2(O)CCCNCC2)sc1CCOc1ccc(F)c(F)c1.Cl (configuration not stated) | 85.82
Cc1ccc(CN2CC[C@H]3[C@H](CC(Cn4cccn4)N3C)C2)s1.O=C(O)C(F)(F)F.O=C(O)C(F)(F)F.O=C(O)C(F)(F)F (some centres not stated) | -11.42
Cc1cc(CNC(=O)NCCOc2ccc(F)c(F)c2)on1 | 0.6606

Missing value: Percent Effect, Leishmania donovani, entry "Cc1ccccc1SC1CCN(C(=O)CCCS(N)(=O)=O)CC1" . Fill in?
28.86

----------
test system: Leishmania donovani; assay: Leishmania intramacrophage assay; type: functional, organism-based; set-up: scale not given: in the data most compounds retested in dose-response had high values; details: 30.3 µM; […]
Out of some 69,000 compounds screened, about 1,000 (1.4%) showed an effect of 50% or more. Only a selection was taken, and strong results are over-represented in it overall.
measured.parameter: Percent Effect (%)
Express it in %; write the number only.

Some entries whose results are on file:
molecule | Percent Effect [%]
O=C(O)C1CN(c2cncc(Cc3ccccc3)n2)C1 | 57.22
CC(Oc1ccc2c(c1)OCO2)C(=O)N1CCC(N2CCCC2)CC1 (configuration not stated) | 30.73
Cc1ccc2cc(C(=O)N3CCCC3Cn3cccn3)[nH]c2c1 (configuration not stated) | 22.94
NCCc1n[nH]c(=O)n1-c1cccc(Cl)c1Cl | 4.495
Cc1cc(C(=O)N2CCn3cc(CN(C)C)nc3C2)no1 | 18.85

Give the measured Percent Effect of Cc1ccccc1N1CCN(c2ccncn2)C(C)C1 (configuration not stated) .
61.35

Can you look up the measured Percent Effect of "COc1ccc(CC(=O)N2CCC(c3n[nH]c(C4CC4)n3)CC2)cc1" for me?
20.62

# get_value(readout='Percent Effect', item= Cc1ccccc1N1CCN(c2cc(N(C)C)ncn2)C(C)C1 (configuration not stated) )
15.61

Which measured Percent Effect value corresponds to c1cnnc(N2CCCC(NCc3nc(-c4ccsc4)no3)C2)c1 (configuration not stated) ?
12.92

Sample O=C(OCc1ccccc1)N1CC[C@H]2CC(CO)O[C@@H]2C1 (some centres not stated) — what was its Percent Effect?
-47.27

What does the data say about its Percent Effect? Entry: CC(C)c1nn(C)c(N(C)C)c1CNC1CCCOc2ccccc21 (configuration not stated)
11.28

What does the data say about its Percent Effect? Entry: CCSCCC(C)N(C)C(=O)c1ccc(C)o1 (configuration not stated)
26.69

----------
test system: Leishmania donovani; test: Leishmania intramacrophage assay; format: functional, organism-based; set-up: scale not given: in the data most compounds retested in dose-response had high values; conditions: 30.3 µM; […]
The whole screen tested about 69,000 compounds, of which about 1,000 (1.4%) showed an effect of 50% or more. Shown is part of a subset that was picked to be rich in strong results.
measured.parameter: Percent Effect

Examples with answers:
compound | Percent Effect
CC(NC(=O)N(C)C1CC1)c1ccc(Oc2cccnc2)c(F)c1 (stereo unspecified) | 4.744%
Cc1nc(CN2CCO[C@H]3CN(C(=O)c4cccn4C)C[C@H]32)cs1 | 20.02%
Cc1n[nH]c(C)c1CCN(C)c1ccc(-c2nc(C3CC3)no2)cn1 | 22.75%
CCN(CC)C(=O)NC(C)c1ccc(Oc2cccnc2)c(F)c1 (stereo unspecified) | -9.456%
COCCn1cc(CCC(=O)Nc2c(C)nn(C)c2C)c2ccccc21 | -5.699%
NC(=O)N1CCC(C(=O)NC2CCc3nccn3C2)CC1 (stereo unspecified) | -91.03%
CCSc1cc(C(=O)NCc2ccc(C(=O)NC)cc2)ccn1 | -0.2287%
CCSc1cc(C(=O)NCCNC(=O)Cc2ccccc2)ccn1 | 42.53%

Would you mind telling me what Percent Effect value was observed for "CSCC[C@@H]1CN2CCC[C@H]2CN1Cc1cn(C)nc1C" ?
-2.658%

Need Percent Effect of "Cc1occc1C(=O)N1CCCn2cnc(CN3CCCC3=O)c2C1" , thanks.
1.546%

Sample "CC(C)(C)NC(=O)CN1CCNCC1.Cl.Cl" — what was its Percent Effect?
11.16%
